Target: P2Y1 receptor (Homo sapiens, UniProt P47900)
Construct: expressed in transfected cells
Sequence (P47900 whole entry): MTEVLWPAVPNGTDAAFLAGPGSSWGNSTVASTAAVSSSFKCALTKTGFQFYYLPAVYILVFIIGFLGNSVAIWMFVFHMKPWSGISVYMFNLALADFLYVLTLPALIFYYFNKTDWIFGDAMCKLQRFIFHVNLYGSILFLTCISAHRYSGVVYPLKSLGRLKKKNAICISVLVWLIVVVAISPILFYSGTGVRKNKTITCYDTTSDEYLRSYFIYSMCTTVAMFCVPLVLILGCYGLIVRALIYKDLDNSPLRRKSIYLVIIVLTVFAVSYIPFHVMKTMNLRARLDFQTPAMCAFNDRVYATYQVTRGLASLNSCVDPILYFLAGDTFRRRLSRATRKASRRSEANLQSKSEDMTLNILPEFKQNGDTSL
Experiment: P2Y1 IP1 accumulation HTRF assay, antagonism of agonist MRS2365 in stably transfected cells
Format: cell-based
Settings: racemic; 5nM MRS2365; values rounded to nearest whole number; N >= 4
pIC50: −log10 of the molar value.
observedProperty: pIC50

Cc1ccc(NC(=O)NC2CC3(CCC3)C2)c(Oc2ccc(F)cc2C2(C(F)(F)F)CCO2)n1 (racemic) [S63]	6.07
CCN1CCC1(c1ccccc1Oc1ncccc1NC(=O)Nc1ccc(OC(F)(F)F)cc1)C(F)(F)F (racemic) [S5]	7.37
COc1ccc(F)c(NC(=O)Nc2cccnc2Oc2ccc(F)cc2C2(C(F)(F)F)CCO2)c1 (racemic) [S57]	6.23
Cc1ccc(NC(=O)Nc2ccc(F)cc2)c(Oc2ccc(F)cc2C2(C(F)(F)F)CCO2)n1 (racemic) [S48]	6.39

[a] O=C(Nc1nc2ccccc2[nH]1)Nc1cccnc1Oc1ccccc1C1(C(F)(F)F)CCO1 (racemic) [S84]
[b] O=C(Nc1ccc(S(F)(F)(F)(F)F)cc1)Nc1cccnc1Oc1ccccc1C1(C(F)(F)F)CCO1 (racemic) [S28]
[c] Cc1c(Oc2ncccc2NC(=O)Nc2ccc(OC(F)(F)F)cc2)cccc1C1COC1 (racemic) [S91]
[d] Cc1ccc(NC(=O)Nc2ccc(Cl)cc2F)c(Oc2ccccc2C2(C(F)(F)F)CCO2)n1 (racemic) [S4]
[e] Cc1ccc(NC(=O)Nc2ccc3c(c2)OC(F)(F)O3)c(Oc2ccc(F)cc2C2(C(F)(F)F)CCO2)n1 (racemic) [S41]
List from greatest to least pIC50. Answer by listing the labels in the requested order.
d, b, e, c, a

[1] Cc1ccc(NC(=O)Nc2ccc(Cl)cc2)c(Oc2ccccc2C2(C(F)(F)F)CCO2)n1 (racemic) [S18]
[2] O=C(Nc1ccccc1)Nc1cccnc1Oc1ccccc1C1(C(F)(F)F)CCO1 (racemic) [S60]
# compare pIC50 for 1 vs 2 ; return the one with the smaller value Please identify the chosen entry by its label.
2

[a] Cc1ccc(NC(=O)Nc2ccc(OC3CC(F)(F)C3)cc2)c(Oc2ccccc2C2(C(F)(F)F)CCO2)n1 (racemic) [S15]
[b] O=C(Nc1ccc(Cl)cn1)Nc1cccnc1Oc1ccccc1C1(C(F)(F)F)CCO1 (racemic) [S46]
Please state the entry with greater pIC50 among a and b . Please identify the chosen entry by its label.
a
(a: 6.98, b: 6.42)

[I] Fc1ccc(Oc2ncccc2Nc2nc3ccc(OC(F)(F)F)cc3[nH]2)c(C2(C(F)(F)F)CCO2)c1 (racemic) [S121]
[II] Cc1ncc(NC(=O)Nc2ccc(Cl)cc2F)c(Oc2ccccc2C2(C(F)(F)F)CCO2)n1 (racemic) [S58]
Please state the entry with greater pIC50 among I and II . Please identify the chosen entry by its label.
II

src = patent EP4095134A1
